Test system: HaCat
assay-method-text: Cytotoxic Profiling of Annotated Libraries Using Quantitative High-Throughput Screening (AID 1296008); also: nearly all actives have a fitted effect of over 60% in size
run-parameters: Five cell lines viability, CellTiter-Glo ATP luminescence, 48-72 h
Records with an inconclusive call do not appear. Active and inactive are the calls of the source. Calls follow the shape of the dose curve; as a rule, active = well fitted inhibition curve with a large enough effect; inconclusive = small, poorly fitted or top-dose-only effect; inactive = flat fitted curve, though single readings scatter.
Classes used: YES (active), NO (inactive)

> print(dat)
                                    molecule  qualitative.label
 1  CC(=O)O[C@]1(C(C)=O)CC[C@H]2[C@@H]3CCC4=CC(=O)CCC4=C3[C@@H](c3ccc(N(C)C)cc3)C[C@@]21C                 NO
 2  CCC(C)/C=C(C)/C=C/C1=CC2=C(Cl)C(=O)C(C)(OC(C)=O)C(=O)C2(O)C(OC)O1 (stereo not drawn)                 NO
 3  CC12CCC3C1C(c1c(cc(O)c(C(=O)c4ccccc4)c1O)O2)C3(C)C (stereo not drawn)                 NO
 4  Cc1nc(NC(=O)N2CCCC2C(N)=O)sc1-c1ccnc(C(C)(C)C(F)(F)F)c1 (stereo not drawn)                YES
 5  CN(C)N(C)C(=O)[C@@]1(Cc2ccccc2)CCCN(C(=O)[C@@H](Cc2c[nH]c3ccccc23)NC(=O)C(C)(C)N)C1                 NO
 6  COc1ccncc1C(=O)NC(=O)Nc1ccc(-c2ccccc2)c(C(F)(F)F)c1                 NO
 7  CCOC(=O)c1ccc(OCCC2CCN(c3ccc(C)nn3)CC2)cc1                 NO
 8  O=C(O)C1=CO[C@@H](O[C@@H]2O[C@H](CO)[C@@H](O)[C@H](O)[C@H]2O)[C@@H]2C(CO)=CC[C@H]12                 NO
 9  CCn1nc(C2CCN(C(=O)CCO)CC2)nc1-c1cnc(N)c(-c2nnc(C(C)(C)C)o2)n1                YES
10  CN(C)CC1CCn2c(c(C3=C(c4cn(C)c5ccccc45)C(=O)NC3=O)c3ccccc32)C1 (stereo not drawn)                YES
11  CC(C)(O)C(=O)N1CCN(c2ccc(C(F)(F)F)c(C3=C(c4c[nH]c5ccccc45)C(=O)NC3=O)c2)CC1                 NO
12  COc1cc(C(=O)O)ccc1NC(=O)C1NC(CC(C)(C)C)C(C#N)(c2ccc(Cl)cc2F)C1c1cccc(Cl)c1F (stereo not drawn)                 NO
13  C[C@]12CC[C@@H]3c4ccc(O)c(O)c4CC[C@H]3[C@@H]1CCC2=O                 NO
14  COc1c(CCC(=O)O)cccc1O[C@@H]1O[C@H](CO)[C@@H](O)[C@H](O)[C@H]1O                 NO
15  COc1cc(N2CCC(N)CC2)ccc1Nc1ncc(Cl)c(-c2c[nH]c3ccccc23)n1                YES
16      CCCC1(CCC)CCC2(CCN(CCCN(CC)CC)C2)CC1                YES
17  CCn1c(-c2nonc2N)nc2c(C#CCO)ncc(OCCCN)c21                 NO
18  CCc1ccccc1OC[C@@H](O)CN[C@H]1CCCc2ccccc21                 NO
